- procedureDetails: Fraction unbound in dog plasma by rapid equilibrium dialysis
- Format: ADME, cell-free, Canis lupus familiaris
reportedProperty: fraction unbound
Keep the answer to the number alone.

For record Cc1nc2ccc(F)c(-c3cc4c([nH]3)CCNC4=O)c2nc1NC(C)(C)C the listed fraction unbound is 0.06

---

Let's look at some compounds and their measured bioavailability.
- procedureDetails: Oral bioavailability in rat at 5 mg/kg
- Assay type: ADME, organism-based
- testConditions: in vivo
Quick reminder: number only, in %, skip the unit.

For record C[C@H]1NC(=O)c2cc(-c3c(F)ccc4c(=O)n(C)c(NC(C)(C)C)nc34)[nH]c21 the listed bioavailability is 10

For record Cc1nc2cccc(-c3cc4c([nH]3)CCNC4=O)c2nc1NC(C)(C)C the listed bioavailability is 6

For record Cc1nc2ccc(F)c(-c3cc4c([nH]3)CCNC4=O)c2nc1NC(C)(C)C the listed bioavailability is 37

For record Cc1nc2cccc(-c3cc4c([nH]3)C3(CC3)NC4=O)c2nc1NC(C)(C)C the listed bioavailability is 100

For record Cc1nc2cccc(-c3cc4c([nH]3)CNC4=O)c2nc1NC(C)(C)C the listed bioavailability is 36

For record Cc1nc2cccc(-c3cc4c([nH]3)[C@@H](C)NC4=O)c2nc1NC(C)(C)C the listed bioavailability is 62

---

- tgt: Serine/threonine-protein kinase PIM (Homo sapiens, UniProt P11309+Q9P1W9+Q86V86)
- testConditions: kms-12-bm
- Description: Inhibition of pan Pim in human KMS-12-BM cells assessed as reduction in phosphorylation of biotinylated-BAD peptide at Serine 112 residue after 110 mins by flow cytometry
reportedProperty: IC50 (nM)
Quick reminder: number only, in nM, skip the unit.

recordSmiles	IC50 (nM)
C[C@H]1NC(=O)c2cc(-c3cccc4c(=O)n(C)c(NC(C)(C)CO)nc34)[nH]c21	127
C[C@H]1NC(=O)c2cc(-c3nccc4c(=O)n(C)c(NC(C)(C)C)nc34)[nH]c21	1642
Cc1nc2cccc(-c3cc4c([nH]3)C3(CC3)NC4=O)c2nc1NC(C)(C)C	78

For record Cc1nc2cccc(-c3cc4c([nH]3)[C@@H](CCN)NC4=O)c2nc1NC(C)(C)C the listed IC50 is 22

For record C[C@H]1NC(=O)c2cc(-c3cccc4c(=O)n(C)c(N(C)C(C)(C)C)nc34)[nH]c21 the listed IC50 is 167

For record C[C@H]1NC(=O)c2cc(-c3cccc4c(=O)n(C)c(CC(C)(C)C)nc34)[nH]c21 the listed IC50 is 5960

For record Cc1nc2ccc(F)c(-c3cc4c(=O)[nH]ccc4[nH]3)c2nc1NC(C)(C)C the listed IC50 is 148

For record Cc1nc2ccc(F)c(-c3cc4c([nH]3)CCNC4=O)c2nc1NC(C)(C)CO the listed IC50 is 143

For record C[C@H]1NC(=O)c2cc(-c3cccc4c3N=C(NC(C)(C)C)N(C)S4(=O)=O)[nH]c21 the listed IC50 is 1142

For record Cc1nc2cccc(-c3cc4n(c3)CCNC4=O)c2nc1NC(C)(C)C the listed IC50 is 4560

For record Cc1nc2cccc(-c3cc4c(s3)CNC4=O)c2nc1NC(C)(C)C the listed IC50 is 2870

For record Cc1nc2cccc(-c3cc4c(s3)C(=O)NC4)c2nc1NC(C)(C)C the listed IC50 is 1380

For record Cc1nc2cccc(-c3cc4c([nH]3)CNC4=O)c2nc1NC(C)(C)C the listed IC50 is 44

For record Cc1nc2ccc(F)c(-c3cc4c([nH]3)CCNC4=O)c2nc1NC(C)(C)C the listed IC50 is 23

For record C[C@H]1NC(=O)c2cc(-c3cccc4c(=O)n(C)c(N5CCCC5(C)C)nc34)[nH]c21 the listed IC50 is 88

For record Cc1nc2cccc(-c3cc4c([nH]3)CCNC4=O)c2nc1NC(C)(C)C the listed IC50 is 110

For record Cc1nc2cccc(-c3cc4c([nH]3)C3(CCOCC3)NC4=O)c2nc1NC(C)(C)C the listed IC50 is 5760
